system_name: T1, anti-CD28 scFv (VH-linker 1-VL) (biotinylated (site not stated))
T1 construct: Captured as biotinylated scFv on neutravidin coated plates in the phage ELISA
experiment_summary: phage ELISA; scFv wells pre-incubated with soluble CD28 (competitor);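 further: crude clonal phage supernatants added to wells pretreated with soluble CD28 in blocking buffer, bound phage read via HRP-linked anti-M13 antibody, reference wells got blocking buffer only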
So basically: CD28 scFv signal in presence of CD28 at 0.2 or higher? That is 1. Lower than 0.2? That is -1.

>  <binder>
MDWCPLYLWAECFN (on phage (pIII fusion)) [Phage-298 clonal phage peptide]

>  <class>
-1

$$$$
>  <binder>
MDWCPMFMWHECFN (on phage (pIII fusion)) [Phage-261 clonal phage peptide]

>  <class>
1

$$$$
>  <binder>
MYWCATSMWNRCFV (on phage (pIII fusion)) [Phage-262 clonal phage peptide]

>  <class>
1

$$$$
>  <binder>
ITWCHVISGLECWN (on phage (pIII fusion)) [Phage-228 clonal phage peptide]

>  <class>
-1

$$$$
>  <binder>
MDWCPRFMWSECFS (on phage (pIII fusion)) [Phage-251 clonal phage peptide]

>  <class>
-1

$$$$
>  <binder>
MDWCPRYLWHECFD (on phage (pIII fusion)) [Phage-244 clonal phage peptide]

>  <class>
-1

$$$$
>  <binder>
MDWCPRYLWDYCFA (on phage (pIII fusion)) [Phage-280 clonal phage peptide]

>  <class>
1

$$$$
>  <binder>
NYWCPSSMWNRCLH (on phage (pIII fusion)) [Phage-219 clonal phage peptide]

>  <class>
-1

$$$$
